Parameter pIC50, tested on Beta-secretase 1 (Homo sapiens), listed per item.
Sequence (P56817 whole entry): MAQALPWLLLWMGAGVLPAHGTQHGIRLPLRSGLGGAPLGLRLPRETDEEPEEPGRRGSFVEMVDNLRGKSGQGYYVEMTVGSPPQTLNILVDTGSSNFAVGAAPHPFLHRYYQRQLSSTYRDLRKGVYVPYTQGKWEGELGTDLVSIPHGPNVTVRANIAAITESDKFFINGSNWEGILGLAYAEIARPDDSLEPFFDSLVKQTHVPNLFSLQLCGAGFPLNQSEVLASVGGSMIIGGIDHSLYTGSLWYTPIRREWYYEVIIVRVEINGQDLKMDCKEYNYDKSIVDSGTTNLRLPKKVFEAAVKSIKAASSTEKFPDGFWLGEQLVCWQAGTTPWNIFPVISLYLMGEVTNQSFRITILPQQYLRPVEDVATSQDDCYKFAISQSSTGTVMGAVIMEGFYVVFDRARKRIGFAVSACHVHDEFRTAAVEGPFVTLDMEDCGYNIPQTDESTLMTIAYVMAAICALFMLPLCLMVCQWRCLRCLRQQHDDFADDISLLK
pIC50: −log10 of the molar value.
quantityMeasured: pIC50

In [3]: df
Out[3]:
                                 smilesrepr  endpointresult
0  CC(C)NC[C@@H](O)[C@H](Cc1ccccc1)NC(=O)c1cc(C(=O)N[C@H](C)c2ccccc2)cc(N(C)S(C)(=O)=O)c1            5.96
1  C[C@@H](NC(=O)c1cc(C(=O)N[C@@H](Cc2ccccc2)[C@H](O)CNCc2ccc3ccn(S(C)(=O)=O)c3c2)cc(N(C)S(C)(=O)=O)c1)c1ccccc1            6.70

----------
Listed here: items and their measured pKi.
measuredOn: Beta-secretase 1 (Homo sapiens)
pKi: −log10 of the molar value.
quantityMeasured: pKi

                                   molecule                       measuredon  endpointresult
0  C[C@@H](NC(=O)c1cc(C(=O)N[C@@H](Cc2ccccc2)[C@H](O)CNCc2ccc3cc[nH]c3c2)cc(N(C)S(C)(=O)=O)c1)c1ccccc1  Beta-secretase 1 (Homo sapiens)            6.64
1  CC(C)NC[C@@H](O)[C@H](Cc1ccccc1)NC(=O)c1cc(C(=O)N[C@H](C)c2ccccc2)cc(N(C)S(C)(=O)=O)c1  Beta-secretase 1 (Homo sapiens)            6.37
2  COc1cccc(CNC[C@@H](O)[C@H](Cc2ccccc2)NC(=O)c2cc(C(=O)NC(C)c3nc(C)oc3C)cc(N(C)S(C)(=O)=O)c2)c1 (stereo partly drawn)  Beta-secretase 1 (Homo sapiens)            6.05

Every entry's value here was drawn from ChEMBL document CHEMBL1141466.
